These data points were gathered from patent US20210347865A1.

Known pKd of a selection of binders
# STUDY_SYSTEM: T1, native human ApoC3 (human, UniProt P02656 21-99, biotinylated in the captured-antigen assays (Tables 6 and 8); sites not stated)
# T1 construct: also called nhuApoC3; native huApoC3
# T1 sequence (P02656 21-99): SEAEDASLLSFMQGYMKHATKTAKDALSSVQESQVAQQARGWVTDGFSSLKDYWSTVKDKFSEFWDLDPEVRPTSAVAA
# PROTOCOL_NOTES: SPR, IgG captured via anti-human Fc, ApoC3 analyte 200 nM
pKd: −log10 of the molar value.
TEST_READOUT: pKd

- BINDER: "29G02 IgG (antibody, V domains shown) VH: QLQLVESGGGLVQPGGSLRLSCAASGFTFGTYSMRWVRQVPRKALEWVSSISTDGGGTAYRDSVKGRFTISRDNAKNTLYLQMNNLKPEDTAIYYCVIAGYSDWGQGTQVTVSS VL: DVVLTQTPGSLSVVPGESASISCKATQSLVHIDGKTYLYWLLQKPGQSPQRLIYQVSTRDSGVPDRFTGAGSGAEFTLKISGVKAEDAGVYYCAQDTYSTKTFGQGTKLEIK"
  ASSAY_VALUE: 8.59
- BINDER: "29G11 IgG (antibody, V domains shown) VH: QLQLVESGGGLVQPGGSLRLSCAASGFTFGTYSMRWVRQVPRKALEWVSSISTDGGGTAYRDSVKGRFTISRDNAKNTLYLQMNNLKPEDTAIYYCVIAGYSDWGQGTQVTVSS VL: DVVLTQTPGSLSVVPGGSASISCKASQSLVYSDGKTYLYWLRQKPGQSPQRLIYQVSNRPSGVPDRFTGSGSGTDFTLKISGVKAEDAGVYYCAQDTYSTKTFGQGTKLEIK"
  ASSAY_VALUE: 8.28
